# assayComment: Solubility experiment of each crystalline form in water
# Type: physicochemical
# testParameters: water, pH 6.74, aqueous buffer, thermodynamic from solid, pH 6.74; read-out: Solubility
quantityMeasured: Solubility (µg/mL)
Number only, in µg/mL; omit the unit.

Quick note, Solubility for COc1cc2c(cc1OC)C(=O)C(CC1(F)CCN(Cc3ccccc3F)CC1)C2 (single isomer, unassigned) [Form A] landed at 140

----------
# assayComment: Solubility experiment of each crystalline form in water
# Format: physicochemical
# testParameters: water, pH 2.01, aqueous buffer, thermodynamic from solid, pH 2.01; read-out: Solubility
quantityMeasured: Solubility (mg/mL)
Number only, in mg/mL; omit the unit.

Quick note, Solubility for COc1cc2c(cc1OC)C(=O)C(CC1(F)CCN(Cc3ccccc3F)CC1)C2 (single isomer, unassigned) [Form A] landed at 12.3

----------
# assayComment: Solubility experiment of each crystalline form in water
# Format: physicochemical
# testParameters: water, pH 4.59, aqueous buffer, thermodynamic from solid, pH 4.59; read-out: Solubility
quantityMeasured: Solubility (mg/mL)
Number only, in mg/mL; omit the unit.

Quick note, Solubility for COc1cc2c(cc1OC)C(=O)C(CC1(F)CCN(Cc3ccccc3F)CC1)C2 (single isomer, unassigned) [Form A] landed at 1.86
